- Test system: DeltatarO mutant
- Experimental details: S. aureus survival, RN4220 and DeltatarO strains – OD600, teichoic acid synthesis inhibitors, primary screen (AID 463173)
- Test settings: S. aureus RN4220 wild type/DeltatarO growth, OD600, 18 h, hits give low values, screened at 18.75 µg/mL (by protocol)
Screen size: about 52,000 compounds; about 4,300 (8.3%) were called active. The entries come from a sample that favours actives as a whole.
// thresholds for survival classes: low bin (below 50%), mid bin (50% to below 80%), high bin (80% or more)

// below: answered compounds
| Compound | Assigned label |
| --- | --- |
| Cc1cccc(-n2c(SCC(N)=O)nc3ccccc3c2=O)c1 | high bin |
| O=C(CSc1nc2c([nH]c3ccccc32)c(=O)n1-c1ccccc1F)Nc1cccc(C(F)(F)F)c1 | mid bin |
| CCOC(=O)CSc1nc2ccccc2c(=O)n1-c1ccc(C(=O)NCCOC)cc1 | high bin |
| Cc1c(Cl)cccc1NC(=O)CSc1nc2ncccc2o1 | low bin |

Categorize the following entry: CCCN1C(=O)C(Cc2nc3ccccc3c(=O)n2-c2cccc(C)c2)c2ccccc21 (stereo not given)
low bin

Lab log: CCOC(=O)CSc1nc2ccccc2c(=O)n1-c1cccc(C)c1 — assign survival category
low bin

Looking at Cn1c(=O)oc2cc(S(=O)(=O)N3CCCC(C(=O)N4CCN(c5ccc(F)cc5)CC4)C3)ccc21 (stereo not given) , which class would you pick?
high bin

Sort into band: CCCN1C(=O)C(Cc2nc3ccccc3c(=O)n2CC)c2ccccc21 (stereo not given)
high bin

Band of CCn1c(CC2C(=O)N(C)c3ccc(Br)cc32)nc2ccccc2c1=O (stereo not given) ?
mid bin

====

// values below are reported survival
- Tested on: DeltatarO mutant
- Experimental details: S. aureus survival, RN4220 and DeltatarO strains – OD600, teichoic acid synthesis inhibitors, primary screen (AID 463173)
- Test settings: S. aureus RN4220 wild type/DeltatarO growth, OD600, 18 h, hits give low values, screened at 18.75 µg/mL (by protocol)
Screen size: about 52,000 compounds; about 4,300 (8.3%) were called active. Shown is part of a subset that was picked to be rich in actives.
Write it as a number; the unit % goes unstated.

The examples below pair each entry with its known result.
| Compound | survival / % |
| --- | --- |
| O=C1c2oc3ccc(F)cc3c(=O)c2C(c2cccc([N+](=O)[O-])c2)N1CCCN1CCOCC1 (stereo not drawn) | 84 |
| Cc1cccc(NC(=O)Cn2c(C(F)(F)F)nc3ccccc32)c1C | 31 |

Please give measured survival of the following entry: CC(=O)Nc1ccc(NC(=O)c2oc3c(c2C)-c2nn(Cc4ccccc4Cl)cc2CC3)cc1
61

Report measured survival; entry is Cc1cccc(NC(=O)C(=O)NCC(c2cccnc2)N2CCc3ccccc32)c1C (stereo not drawn)
53

Provide one value: measured survival of O=C(NCC(c1cccnc1)N1CCc2ccccc21)c1cccc(C(F)(F)F)c1 (stereo not drawn)
45

Identify the reported survival for the following entry. Cc1ccc(-n2ncc3c(NC4CCCCCC4)ncnc32)cc1Cl
66

Name the recorded survival of the compound listed here: Cc1c(C(=O)O)oc2c1-c1nn(Cc3ccccc3Cl)cc1CC2
80

Give survival for the following compound: Cc1c(C(=O)O)oc2c1-c1nn(Cc3ccc(Cl)cc3)cc1CC2
89
